These measurements were taken from patent US20240261416A1.

assay: stability in human liver microsomes (hLM)
Format: in vitro ADME
assay.conditions: after 0.5 h
Kindly state hLM, percent compound remaining for each of the entries shown.
One number for each entry, in %.

Field: example entries. Status: answers known.
molecule	hLM, percent compound remaining [%]
Nc1cccc2c1CN(C1CCC(=O)NC1=O)C2=O (centres unmarked) [Lenalidomide, lenalidomide, reference compound]	89
Cc1c(OCC(=O)N2CCCCC2)cccc1N1CCC(=O)NC1=O	85
Cc1c(C#CCNC(=O)OC(C)(C)C)cccc1N1CCC(=O)NC1=O	87
CCNC(=O)COc1cccc(N2CCC(=O)NC2=O)c1C	100

// below: hLM, percent compound remaining requested for another molecule
Consider the molecule shown here: CC(=O)NCCC#Cc1cccc(N2CCC(=O)NC2=O)c1C What is its recorded hLM, percent compound remaining?
90
